assay: Lipophilicity, log D of the compound by chromatography; format: physicochemical
Form field: chromatographic logD (one value per entry).
Lab note: record the figure alone, no unit after it.

// known answers, use as guide
Give its chromatographic logD value. Item: N#Cc1cccc(S(=O)(=O)N(Cc2ccc(F)cc2)C[C@@H]2CCCC(=O)N2)c1
2.9

Give its chromatographic logD value. Item: N#Cc1cccc(S(=O)(=O)N(CC[C@@H]2CCC(=O)N2)Cc2ccc(F)cc2)c1
2.9

Give its chromatographic logD value. Item: CCN1C(=O)CC[C@H]1CN(Cc1ccc(F)cc1)S(=O)(=O)c1cccc(C#N)c1
3.5

Give its chromatographic logD value. Item: NC(=O)c1ccc(N(Cc2ccc(F)cc2)S(=O)(=O)c2ccccc2F)cc1
3.4

Next:
Give its chromatographic logD value. Item: N#Cc1cccc(S(=O)(=O)N(CCc2ccc(F)cc2)C[C@@H]2CCC(=O)N2)c1
2.9

Give its chromatographic logD value. Item: O=S(=O)(c1ccccc1F)N(Cc1ccccc1)Cc1ccc(F)cc1
6.2

Give its chromatographic logD value. Item: N#Cc1ccc(S(=O)(=O)N(Cc2ccc(F)cc2)C[C@@H]2CCC(=O)N2)cc1
2.6

###

Form field: pIC50 (one value per entry).
target: Potassium voltage-gated channel subfamily A member 5 (Homo sapiens, UniProt P22460); assay: Inhibition of human Kv1.5 ion channel expressed in CHO cells by patch clamp assay; assay type: cell-based
Sequence (P22460 whole entry): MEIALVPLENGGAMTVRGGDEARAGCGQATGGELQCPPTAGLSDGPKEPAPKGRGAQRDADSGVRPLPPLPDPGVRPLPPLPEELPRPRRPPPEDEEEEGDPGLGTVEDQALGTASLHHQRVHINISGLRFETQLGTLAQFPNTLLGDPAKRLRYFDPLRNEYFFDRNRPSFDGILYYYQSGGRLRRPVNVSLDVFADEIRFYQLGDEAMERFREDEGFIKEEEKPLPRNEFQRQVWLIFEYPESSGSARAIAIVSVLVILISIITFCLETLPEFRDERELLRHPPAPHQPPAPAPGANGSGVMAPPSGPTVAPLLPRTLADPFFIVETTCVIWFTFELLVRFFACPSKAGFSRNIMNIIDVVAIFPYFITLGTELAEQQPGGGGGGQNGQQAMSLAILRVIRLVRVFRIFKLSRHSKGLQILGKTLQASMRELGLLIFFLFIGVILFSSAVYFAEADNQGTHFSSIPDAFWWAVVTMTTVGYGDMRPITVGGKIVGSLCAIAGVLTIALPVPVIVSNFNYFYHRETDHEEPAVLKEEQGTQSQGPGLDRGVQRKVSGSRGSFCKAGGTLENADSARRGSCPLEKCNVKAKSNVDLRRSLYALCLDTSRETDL
The quantity pIC50 is defined as the negative base-10 logarithm of the molar concentration.

Give its pIC50 value. Item: N#Cc1cccc(S(=O)(=O)N(Cc2ccc(Cl)cc2)C[C@@H]2CCC(=O)N2)c1
5.66

Next:
Give its pIC50 value. Item: CN1C(=O)CC[C@H]1CN(Cc1ccc(F)cc1)S(=O)(=O)c1cccc(C#N)c1
6.09

Give its pIC50 value. Item: O=C1CC[C@@H](CN(Cc2ccc(F)cc2)S(=O)(=O)c2cc(Cl)cc(Cl)c2)N1
5.09

Give its pIC50 value. Item: O=C1CC[C@@H](CN(Cc2ccc(F)cc2)S(=O)(=O)c2ccc(F)cc2)N1
5.39

Give its pIC50 value. Item: O=S(=O)(c1ccc(F)cc1)N(Cc1ccc(F)cc1)Cc1ccccn1
5.70

Give its pIC50 value. Item: CN1C(=O)CC[C@H]1CN(Cc1ccc(Cl)cc1)S(=O)(=O)c1cccc(C#N)c1
6.68

###

target: Potassium voltage-gated channel subfamily A member 5 (Homo sapiens); test: Inhibition of human Kv1.5 ion channel expressed in CHO cells by patch clamp assay; assay type: cell-based
pIC50: −log10 of the molar value.
Form field: pIC50 (one value per entry).

// known answers, use as guide
Lookup: pIC50 / Potassium voltage-gated channel subfamily A member 5 (Homo sapiens) / N#Cc1ccc(S(=O)(=O)N(Cc2ccc(F)cc2)C[C@@H]2CCC(=O)N2)cc1
< 4.52

Lookup: pIC50 / Potassium voltage-gated channel subfamily A member 5 (Homo sapiens) / N#Cc1cccc(S(=O)(=O)N(CCc2ccc(F)cc2)C[C@@H]2CCC(=O)N2)c1
< 5.00

Lookup: pIC50 / Potassium voltage-gated channel subfamily A member 5 (Homo sapiens) / N#Cc1ccccc1S(=O)(=O)N(Cc1ccc(F)cc1)C[C@@H]1CCC(=O)N1
< 4.52

Continue with the next compound.
Lookup: pIC50 / Potassium voltage-gated channel subfamily A member 5 (Homo sapiens) / O=C1CC[C@@H](CN(Cc2ccc(F)cc2)S(=O)(=O)c2cccc3c2OCCO3)N1
< 5.00
